This section presents compounds with their documented growth inhibition values.
Test: NCI Yeast Anticancer Drug Screen. Data for the rad50 strain (AID 155);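 note: 0% = growth of vehicle-only cultures of the same strain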
Conditions: S. cerevisiae rad50 strain growth inhibition; at 50.0 µM; stronger effect = higher value
About 79,000 compounds went through this panel and 15% of them were active in at least one assay; those are over-represented in the sample as a whole.
Expressed in %, but write only the number.

compound | attribute measured | observed value
CCN(CC)CCOc1ccc(Cc2nc3c([nH]2)c(=O)n(C)c(=O)n3C)cc1 | growth inhibition | 21.6
Nc1ccc(C2NC=CN2)cc1 | growth inhibition | -12.1

Prompt: I would be grateful if you could share the reported growth inhibition for Cc1cc(=O)[nH]c(NNC(C#N)c2ccc([N+](=O)[O-])cc2)n1 (stereo unspecified) .
Completion: -18.5

Prompt: And the next one, Nc1cc(=O)c2n[nH]nc2[nH]1 ?
Completion: -29.9
